Entry source: ChEMBL document CHEMBL3797090

# System: MDA-MB-231
# Measurement notes: Cytotoxicity against human MDA-MB-231 cells assessed as reduction in cell growth after 72 hrs by cell titer glo assay
# Format: functional, cell-based
# Protocol conditions: MDA-MB-231, 72 h

Compound | Measure unit | IC50
O=C1c2ccccc2C(=O)c2c(O)c(C(O)C/C=C/c3ccccc3Br)cc(O)c21 (stereo not given) | µM | 30.7
O=C1c2ccccc2C(=O)c2c(O)c(C(O)C/C=C/c3cccc(F)c3)cc(O)c21 (stereo not given) | µM | 26.5
O=C1c2ccccc2C(=O)c2c(O)c(C(O)C/C=C/c3ccc(F)cc3)cc(O)c21 (stereo not given) | µM | 28
COc1ccc(/C=C/CC(O)c2cc(O)c3c(c2O)C(=O)c2ccccc2C3=O)cc1 (stereo not given) | µM | 26.9
CC(C)=CC[C@@H](O)C1=CC(=O)c2c(O)ccc(O)c2C1=O [SHIKONIN] | µM | 3.94
COc1cccc2c1C(=O)c1c(O)c3c(c(O)c1C2=O)C[C@@](O)(C(=O)CO)C[C@@H]3O[C@H]1C[C@H](N)[C@H](O)[C@H](C)O1 [DOXORUBICIN] | µM | 0.16
O=C1C2=C(C(=O)c3ccccc31)C(O)C1=C(O)CC(c3ccccc3)C1=C2O (stereo not given) | µM | 28.8
O=C1c2ccccc2C(=O)c2c(O)c(C(O)C/C=C/c3ccccc3F)cc(O)c21 (stereo not given) | µM | 29.2
O=C1c2ccccc2C(=O)c2c(O)c(C(O)C/C=C/c3ccc(Cl)cc3)cc(O)c21 (stereo not given) | µM | 28.5
O=C1c2ccccc2C(=O)c2c(O)c(C(O)C/C=C/c3cccc(Cl)c3)cc(O)c21 (stereo not given) | µM | 31.2
